test: NCI Yeast Anticancer Drug Screen. Data for the rad50EPP+ strain (AID 151);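 note: 0% = growth of vehicle-treated control cultures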; conditions: S. cerevisiae rad50 mutant strain, at 100.0 µM
This is part of a sample that, as a whole, favours compounds with a hit. Of some 79,000 tested, about 15% had one in any assay. Activity calls are given as the source filed them. Cut-off read from the data, not from the text of the source: active = growth inhibition above about 70%; inactive = the rest.
Could you please pick one outcome from this set? active, inactive

{"columns": ["Smiles input", "Label value"],
 "data": [
  ["CCCCCCCCCCCCCCCCCCNC(=S)/N=C\\C1=C(O)c2ccccc2C1=O", "inactive"]
]}

Q: Each compound tested received a call. Report the one for `CCCCCCCCCCCCCCCCNC(=O)/C(=C\c1ccc(Cl)c(Cl)c1)NC(=O)c1ccccc1` .
Ans: active

Q: Each compound tested received a call. Report the one for `N#C/C(=C/c1c(Cl)cccc1Cl)C(N)=O` .
Ans: inactive

---

test: NCI Yeast Anticancer Drug Screen. Data for the rad52 strain (AID 147);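 note: 0% = growth of vehicle-treated control cultures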; conditions: S. cerevisiae rad52 mutant growth inhibition; at 1.2 µM; active compounds read high
Compounds without any hit were thinned out: in the full panel of roughly 79,000, 15% have a hit.
Below is a list of entries, each paired with its recorded growth inhibition value.
Your answer should be a plain number; it is taken to be in %.

{"columns": ["Molecule", "Unit text", "Reported measurement"],
 "data": [
  ["S=c1[nH]nc(-c2ccc(Cl)cc2)s1", "%", 16]
]}

Q: Recall and state the measured growth inhibition for `Oc1ccc(C=Nc2ccccc2O)cc1` .
Ans: 34

Q: Recall and state the measured growth inhibition for `COC(=O)c1ccc2c(c1)Cc1ccccc1-2` .
Ans: -1

Q: Recall and state the measured growth inhibition for `CC(C)(O)c1ccccc1C(c1ccccc1)c1ccccc1` .
Ans: 0

Q: Recall and state the measured growth inhibition for `COc1ccc2c(c1)[nH]c1c(/C=C/c3ccccc3)nccc12` .
Ans: 9

Q: Recall and state the measured growth inhibition for OC(CN1CCCCC1)c1cc(Cl)c(Cl)c(Cl)c1 (configuration not stated) .
Ans: 3

Q: Recall and state the measured growth inhibition for `Cc1cccc(/C=N\NC(=S)N2CCCCC2)n1` .
Ans: -17

---

experiment: NCI Yeast Anticancer Drug Screen. Data for the bub3 strain (AID 167); conditions: S. cerevisiae bub3 mutant strain, at 33.0 µM
Compounds without any hit were thinned out: in the full panel of roughly 79,000, 15% have a hit. Calls of active or inactive are those of the source. No stated cut-off is given here; in the data, active means growth inhibition above about 70%; inactive means the rest.
Could you please pick one outcome from this set? yes (active), no (inactive)

{"columns": ["Compound", "Label value"],
 "data": [
  ["CC(=O)O[C@H]1C(=O)[C@@]2(C)[C@H]([C@H](OC(=O)c3ccccc3)[C@]3(O)C[C@H](OC(=O)[C@H](O)[C@@H](NC(=O)c4ccccc4)c4ccccc4)C(C)=C1C3(C)C)[C@]1(OC(C)=O)CO[C@@H]1C[C@@H]2O", "no"],
  ["CC1(C)C(C=O)=CCC1CC(N)=O (stereo unspecified)", "no"],
  ["COCCCN(Cc1cc(OC)c(OC)c(OC)c1)C(=S)Nc1cccc(Cl)c1", "no"],
  ["CCOC(=O)C(NC(=O)CC)(N1CCN(c2cc3c(cc2F)c(=O)c(C(=O)O)cn3C2CC2)CC1)C(F)(F)F (stereo unspecified)", "no"],
  ["N#C/C(=C/c1c(Cl)cccc1Cl)C(N)=O", "no"],
  ["S=c1[nH]c2c(Cl)c(Cl)c(Cl)c(Cl)c2[nH]1", "yes"]
]}

Q: Each compound tested received a call. Report the one for `Cc1nc2c(ncn2CCO)c(=O)[nH]1` .
Ans: no

Q: Each compound tested received a call. Report the one for `NNC(=S)Nc1cccc(Cl)c1` .
Ans: no

Q: Each compound tested received a call. Report the one for `CC(C)c1cccc(O)c(=O)c1` .
Ans: no

Q: Each compound tested received a call. Report the one for `CC(C)(C)[OH+][O-].[O-]c1ccc(Cl)cc1C=Nc1ccc(Cl)cc1[O-].[O]=[V]` .
Ans: no

Q: Each compound tested received a call. Report the one for Nc1nc2c(c(=O)[nH]1)NC(CCNc1ccc(C(=O)O)cc1)CN2 (stereo unspecified) .
Ans: no

---

experiment: NCI Yeast Anticancer Drug Screen. Data for the wt1 strain (AID 149);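 note: 0% = growth of vehicle-treated wt1 cultures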; details: S. cerevisiae wt1 strain (SPY 50644) growth inhibition; at 11.0 µM; active compounds read high
The panel holds about 79,000 compounds, 15% with a hit somewhere; the sample as a whole holds those more often.
Below is a list of entries, each paired with its recorded growth inhibition value.
Your answer should be a plain number; it is taken to be in %.

The cases that follow already have their growth inhibition on record.
{"columns": ["Compound", "growth inhibition (%)"],
 "data": [
  ["N#CSC1CCCCNC1=O (centres undefined)", 9],
  ["OCCNCCOc1ccc(/C(=C(/Cl)c2ccccc2)c2ccccc2)cc1", -3],
  ["COc1ccc2oc(-c3ccc(Cl)cc3)c(N3CCN(C)CC3)c2c1", 30],
  ["CCOC(=O)C1=C(C)NC(C)=C(C(=O)OCC)C1c1ccc(C)cc1", 57],
  ["Cc1cc(N=C2C=CC(=[N+](C)C)C=C2)c(N)cc1N", 23]
]}

Q: Recall and state the measured growth inhibition for `CC[C@@]1(OC(=O)CCC(=O)O)C(=O)OCc2c1cc1n(c2=O)Cc2cc3ccccc3nc2-1` .
Ans: 7

Q: Recall and state the measured growth inhibition for `O/N=C/C1c2ccccc2-c2ccccc21` .
Ans: -7

---

assay: NCI Yeast Anticancer Drug Screen. Data for the rad50 strain (AID 155);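 note: 0% = growth of vehicle-only cultures of the same strain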; details: S. cerevisiae rad50 strain growth inhibition; at 100.0 µM; active compounds read high
The panel holds about 79,000 compounds, 15% with a hit somewhere; the sample as a whole holds those more often.
Property label: growth inhibition (%)
Your answer should be a plain number; it is taken to be in %.

{"columns": ["Smiles input", "growth inhibition, %"],
 "data": [
  ["Nc1nc(N)c2cc(Sc3ccc4ccccc4c3)ccc2n1", 92],
  ["CC(=O)CC(=O)/C=C/c1cccs1", 92]
]}

# input for lookup
Q: Recall and state the measured growth inhibition for `CO[C@@]12[C@H](COC(N)=O)C3=C(C(=O)C(C)=C(N)C3=O)N1C[C@@H]1N[C@@H]12` .
Ans: 91

---

assay: NCI Yeast Anticancer Drug Screen. Data for the bub3 strain (AID 167); settings: S. cerevisiae bub3 mutant strain, at 1.2 µM, active compounds read high
This is part of a sample that, as a whole, favours compounds with a hit. Of some 79,000 tested, about 15% had one in any assay.
Property label: growth inhibition (%)
Your answer should be a plain number; it is taken to be in %.

The cases that follow already have their growth inhibition on record.
{"columns": ["Compound", "growth inhibition (%)"],
 "data": [
  ["CCCCCCSc1nc(COC(=O)NC)c(COC(=O)NC)n1C", -4],
  ["Clc1c(Cl)c(Cl)c2c(nnn2C2CCCO2)c1Cl (configuration not stated)", -7],
  ["O=C1CC(=O)N(C2CCCCC2)C(=O)N1c1ccccc1S(=O)(=O)Oc1ccccc1", -13],
  ["Cc1ccc(N=Nc2ccc(O)c(C)c2)cc1", -6]
]}

Q: Recall and state the measured growth inhibition for `O=S(=O)(c1cc(Cl)ccc1O)c1cc(Cl)ccc1O` .
Ans: 20

Q: Recall and state the measured growth inhibition for `N#Cc1sc2c(c1OC(=O)c1ccco1)c(=O)n(-c1ccccc1)c(=S)n2-c1ccccc1` .
Ans: 0

Q: Recall and state the measured growth inhibition for `COC(=O)c1ccc2c(c1)Cc1ccccc1-2` .
Ans: -7

Q: Recall and state the measured growth inhibition for `CN[C@@H]1C[C@H]2O[C@@](C)([C@@H]1OC)n1c3ccccc3c3c4c(c5c6ccccc6n2c5c31)C(=O)N[C@@H]4O` .
Ans: -11

Q: Recall and state the measured growth inhibition for `O=C(Nc1cccc(C(F)(F)F)c1)Oc1ccc(Cl)cc1C(=O)c1ccccc1` .
Ans: 10

Q: Recall and state the measured growth inhibition for `CSc1s[s+]c(SC)c1-c1ccccc1` .
Ans: 9

Q: Recall and state the measured growth inhibition for `Nc1nc(N)c2cc(Sc3ccc4ccccc4c3)ccc2n1` .
Ans: -21

Q: Recall and state the measured growth inhibition for `COc1ccc2oc(-c3ccc(Cl)cc3)c(N3CCN(C)CC3)c2c1` .
Ans: -3

Q: Recall and state the measured growth inhibition for `CN(N=O)C(=O)N[C@@H](C=O)[C@@H](O)[C@H](O)[C@H](O)CO` .
Ans: 1

Q: Recall and state the measured growth inhibition for `CNc1nc(C)nc2c1cnn2-c1ccc([N+](=O)[O-])cc1` .
Ans: -5

Q: Recall and state the measured growth inhibition for CN(C)CC1CCCc2ccccc2C1=O (configuration not stated) .
Ans: 24

Q: Recall and state the measured growth inhibition for `NNC(=S)Nc1cccc(Cl)c1` .
Ans: -12

---

assay: NCI Yeast Anticancer Drug Screen. Data for the rad50EPP+ strain (AID 151);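 note: 0% = growth of vehicle-treated control cultures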; conditions: S. cerevisiae rad50 mutant strain, at 11.0 µM, active compounds read high
Compounds without any hit were thinned out: in the full panel of roughly 79,000, 15% have a hit.
Below is a list of entries, each paired with its recorded growth inhibition value.
Your answer should be a plain number; it is taken to be in %.

The cases that follow already have their growth inhibition on record.
{"columns": ["Compound", "Unit text", "Reported measurement"],
 "data": [
  ["CCn1ncc(N=O)c1N", "%", 3],
  ["OC(CN1CCCCC1)c1cc(Cl)c(Cl)c(Cl)c1 (centres undefined)", "%", 10]
]}

Q: Recall and state the measured growth inhibition for `COc1ccc(/C(C#N)=C/c2ccc(OC)c(OC)c2)cc1` .
Ans: 8

Q: Recall and state the measured growth inhibition for Nc1nc2c(c(=O)[nH]1)NC(CCNc1ccc(C(=O)O)cc1)CN2 (centres undefined) .
Ans: -3

Q: Recall and state the measured growth inhibition for `N#CC(=S)Nc1cccc(Cl)c1` .
Ans: 10

Q: Recall and state the measured growth inhibition for `Clc1cc(Cc2ccc(N=C/C=C/c3ccccc3)c(Cl)c2)ccc1N=C/C=C\c1ccccc1` .
Ans: 15

Q: Recall and state the measured growth inhibition for `CCN1/C(=C/c2ccc3ccccc3[n+]2CC)C=Cc2ccccc21` .
Ans: 8

Q: Recall and state the measured growth inhibition for `CCc1[nH]nc(C(N)=O)c1N=NN(C)C` .
Ans: 27

Q: Recall and state the measured growth inhibition for `CCCCCC#CCOC(=O)C(=[N+]=[N-])P(=O)(c1ccccc1)c1ccccc1` .
Ans: 26
